Value source: the supplement of paper PMC11208160

For each of the sequences below, state its recombinant barcode read abundance (log10).
- test: recombinant barcode read abundance after kanamycin selection (control-corrected) (log10(CPM+1)); higher = more efficient recombination; sequences stand for … in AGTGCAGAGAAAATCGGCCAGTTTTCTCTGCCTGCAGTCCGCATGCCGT…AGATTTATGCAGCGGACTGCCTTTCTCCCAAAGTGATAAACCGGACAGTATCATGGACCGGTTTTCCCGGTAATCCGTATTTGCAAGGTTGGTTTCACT; site = the 11-nt target;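 note: IS621 recombinase and bridge RNA in Escherichia coli cells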
Give bare numbers.

These recorded examples may help you get a feel for the data.
GGGCACTCTTGGGTTCTAACCTGTTGCTT (site GGGCACTCTAA) = 1.93
GGACGACCTTGGGTTCTAACCTGTTGCCT (site GGACGTCCTAG) = 0.163
CGAACTACTTGGGTTCTAACCTGTTGCGT (site CGAACTACTAC) = 0.143
TTCTTGCCTTGGGTTCTAACCTGTTGCCT (site TTCTTGCCTAG) = 0.665
CGCGGGTCTTGGGTTCTAACCTGTTGCTT (site CGCGGGTCTAA) = 0.88
CAGAGCCCTTGGGTTCTAACCTGTTGCTG (site CAGAGCCCTCA) = 1.84

Below are 4 sequences. Give each one its recombinant barcode read abundance (log10).
1. GTCCCTCCTTGGGTTCTAACCTGTTGCCT (site GTCCCTCCTAT)
2. GTGGTAGCTTGGGTTCTAACCTGTTGCCT (site GTGGTACCTAG)
3. CAAAATTCTTGGGTTCTAACCTGTTGCGT (site CAGAATACTAC)
4. TATTGGACTTGGGTTCTAACCTGTTGCAG (site TATTGGACTAT)

[0.586, 0.209, 0.0891, 0.264]
